- measurement.target: Alpha-1D adrenergic receptor (Homo sapiens)
- Sequence (P25100 whole entry): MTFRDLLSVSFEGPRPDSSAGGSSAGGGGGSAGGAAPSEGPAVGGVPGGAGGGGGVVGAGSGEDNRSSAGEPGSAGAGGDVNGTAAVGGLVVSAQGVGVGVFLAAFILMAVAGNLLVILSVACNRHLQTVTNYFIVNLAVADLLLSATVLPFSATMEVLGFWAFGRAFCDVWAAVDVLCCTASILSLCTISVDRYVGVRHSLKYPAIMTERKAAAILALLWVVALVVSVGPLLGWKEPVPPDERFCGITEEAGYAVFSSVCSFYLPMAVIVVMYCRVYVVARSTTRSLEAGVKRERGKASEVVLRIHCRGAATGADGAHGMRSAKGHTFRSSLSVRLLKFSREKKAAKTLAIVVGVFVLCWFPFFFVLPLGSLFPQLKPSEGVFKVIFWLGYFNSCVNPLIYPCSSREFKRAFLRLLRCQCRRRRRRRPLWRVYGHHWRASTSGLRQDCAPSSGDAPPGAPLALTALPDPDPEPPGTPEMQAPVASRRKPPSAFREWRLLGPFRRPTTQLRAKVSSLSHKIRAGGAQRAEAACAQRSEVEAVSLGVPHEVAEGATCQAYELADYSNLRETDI
- Format: cell membranes, HEK293, Membrane
- condition.context: read-out: Ki
Would you kindly list Ki for each of these compounds?
One number for each entry, in nM.

Completed entries (count: 3):
* CCN(CC)CCCC(C)Nc1c2ccc(Cl)cc2nc2ccc(OC)cc12 (centres undefined) | 1020
* CN1[C@@H]2CC[C@H]1C[C@@H](OC(c1ccccc1)c1ccccc1)C2 | 26
* CN1CCC(=C2c3ccccc3CC(=O)c3sccc32)CC1 | 1830

Query compound follows.
Just so you know, measured Ki for CN1CCCC(CN2c3ccccc3Sc3ccccc32)C1 (centres undefined) came out at 67
